All figures here come from PubChem BioAssay (Tox21).

ASSAY_COMMENT: qHTS assay for small molecule disruptors of the mitochondrial membrane potential (AID 720635)
CONDITION_SUMMARY: HepG2 mitochondrial membrane potential, Mito-MPS dye ratio; series mostly up to 83.2 µM
Results filed as inconclusive are left out. Activity calls are given as the source filed them. The call rests on the fitted dose curve; in most records, active means well fitted inhibition curve with a large enough effect in the signal ratio in the repeat runs; inconclusive means weak or mixed curves, or effect the other way; inactive means flat fitted curve, though single readings scatter; the % refers to the signal ratio.
API: response.call in yes (1) for active, no (0) for inactive

Per the assay record, what outcome was assigned to `O=Cc1cc(O)ccc1Br` ?
yes (1)

Identify the outcome logged in this assay for the molecule shown: `CCCCc1oc2ccc(NS(C)(=O)=O)cc2c1C(=O)c1ccc(OCCCN(CCCC)CCCC)cc1`
yes (1)

Tell me the assay call for `O=C(Nc1cccc(Cl)c1)OCC#CCCl` please.
yes (1)

Outcome logged for `Oc1ccc(N=Nc2ccccc2)cc1` in this assay:
yes (1)

Identify the outcome logged in this assay for the molecule shown: CC1=NC(C)OC1C (configuration not stated)
no (0)

Each molecule tested received a call. Report the one for `CCCCCCCCCCn1cc[n+](CCCCCCCCCC)c1C` .
yes (1)

Kindly provide the recorded test outcome for the following molecule: `CCCCCCCCOc1ccccc1C(=O)Nc1ccc(C(=O)OCC[N+](C)(CC)CC)cc1`
yes (1)

What classification did `Cc1cc(C2CCCCC2)n(O)c(=O)c1` end up with in this test?
yes (1)

Outcome logged for `Cc1cc2c(cc1C(F)(F)F)N(C(=O)Nc1ccc(Oc3cccnc3C)nc1)CC2` in this assay:
yes (1)

Name the outcome recorded for `O=C(O)c1cc(O)c2c(c1)C(=O)c1cccc(O)c1C2=O` in the assay.
yes (1)

Please indicate how the test categorized `Oc1cccc(-c2c3nc(c(-c4cccc(O)c4)c4ccc([nH]4)c(-c4cccc(O)c4)c4nc(c(-c5cccc(O)c5)c5ccc2[nH]5)CC4)C=C3)c1` .
yes (1)

Status in this test for `C[C@H](CCC(=O)O)[C@H]1CC[C@H]2[C@@H]3CC[C@@H]4C[C@H](O)CC[C@]4(C)[C@H]3CC[C@]12C` ?
yes (1)
